polymerase ribozyme fitness (log ratio) reference
B1: TPR 5TU (parent)
chain: GGAUCUUCUCGAUCUAACAAAAAAGACAAAUCUGCCACAAAGCUUGAGAGCAUCUUCGGAUGCAGAGGCGGCAGCCUUCGGUGGCGCGAUAGCGCCAACGUUCUCAACUAUGACACGCAAAACGCGUGCUCCGUUGAAUGGAGUUUAUCAUG

# Variants of: B1
# testMethodNotes: polymerase ribozyme fitness, log enrichment relative to wild type (log ratio); higher = more active; in vitro selection for triplet polymerase activity
This sample holds only a part of the variants without activity.

Use these answered entries as a reference point.
[
  {
    "variantName": "A29C C36G U78C C93G A97G",
    "result": "≤ -4.2"
  },
  {
    "variantName": "G94C G128U",
    "result": -3.18
  },
  {
    "variantName": "U61G G84A U139C U145C",
    "result": "≤ -4.2"
  },
  {
    "variantName": "C38U C57G G58A C116A A138G",
    "result": "≤ -4.2"
  },
  {
    "variantName": "C5A G11A G84A C95A C103U C116U",
    "result": -1.5
  }
]

QUERY: For C87G C93U C99A U134G G141U , what is its reported polymerase ribozyme fitness (log ratio)?
RESULT: ≤ -4.2

QUERY: What would you report for U6G C10G ?
RESULT: -3.01

QUERY: What would you report for U13G A24U A28U A29U C54U C69A C76G G94U A97C U135C ?
RESULT: ≤ -4.2

QUERY: What would you report for A3G U82G C95U U102G ?
RESULT: -3.62

QUERY: What would you report for G50C A52G U77A G128U A142U ?
RESULT: ≤ -4.2

QUERY: What would you report for A22U C95U C103G ?
RESULT: -1.55

Cited source: the RNAGym collection of RNA variant scans (doi:10.1073/pnas.2313332121)
